assay details: MTT assay (cytotoxicity), DU145 cells
Assay type: cell-based
settings: human, DU145 cells, Table 2.4
readout label: IC50 at 72 h (µM)
Response body: numeric value in µM, unit text excluded.

Known IC50 at 72 h results, listed for orientation:
1) O=C(N/C=C/c1ccco1)Nc1ccc([N+](=O)[O-])c(C(F)(F)F)c1 [Compound 434]    7.8
2) N#Cc1ccc(NC(=O)N/C=C/c2cccs2)cc1C(F)(F)F [Compound 428]    5.1
3) N#Cc1ccc(NC(=O)N/C=C/c2cccs2)cc1 [Compound 424]    14.4
4) O=C(N/C=C/c1ccc([N+](=O)[O-])c(C(F)(F)F)c1)NCc1cccc(C(F)(F)F)c1 [Compound 461]    3.4
5) O=C(NCCc1cccc(C(F)(F)F)c1)Nc1ccc([N+](=O)[O-])c(C(F)(F)F)c1 [Compound 448]    7.5

Let us move to another entry and its IC50 at 72 h.
// query Item under review: CC(C)(C)OC(=O)n1cc(/C=C/NC(=O)Nc2ccc([N+](=O)[O-])c(C(F)(F)F)c2)c2ccccc21 [Compound 450] . Reported IC50 at 72 h?
// result 4.9

----------
assay details: MTT assay (cytotoxicity), LNCaP cells
Format: cell-based
settings: human, LNCaP cells, 72 h, Table 2.5
Method: MTT assays: LNCaP, 22Rv1, Du145, H1975, A549, MB231 and MCF-7 cells are maintained in RPMI 1640 supplemented with 10% FBS. Cells were seeded at a density of 6-7×10^3 cells per well in 96-well plates. After overnight incubation, cells in fresh RPMI 1640 supplemented with 10% FBS were exposed to DMSO vehicle control or test compounds at designated concentrations for 72 h. Viable cells were evaluated by MTT assays. Experiments were performed in triplicate and repeated at least twice.
readout label: IC50 at 72 h

// query Item under review: CC/C=C(\C)CN(C(=O)N/C=C/c1cc(C(F)(F)F)cc(C(F)(F)F)c1)c1ccc(C#N)nc1 . Reported IC50 at 72 h?
// result 6 µM

----------
assay details: MTT assay (cytotoxicity), LNCaP cells
Assay type: cell-based
settings: human, LNCaP cells, 72 h treatment, Table 6.1
readout label: IC50 at 72 h
Form field: result (number plus unit)

Known IC50 at 72 h results, listed for orientation:
1) O=C(Nc1cccc(C(F)(F)F)c1)Nc1ccc(NC(=O)c2cc(F)ccc2F)c(C(F)(F)F)c1    6.6 µM
2) O=C(Nc1cccc(C(F)(F)F)c1)Nc1cc(NC(=O)c2ccccc2F)cc(C(F)(F)F)c1    2.4 µM
3) O=C(Nc1cccc(C(F)F)c1)Nc1ccc(NC(=O)c2ccc(F)cc2F)c(C(F)(F)F)c1    7.3 µM

// query Item under review: O=C(Nc1cccc(C(F)(F)F)c1)Nc1ccc(C(=O)Nc2ccccc2F)c(C(F)(F)F)c1 . Reported IC50 at 72 h?
// result 3 µM

// query Item under review: O=C(Nc1cccc(C(F)(F)F)c1)Nc1ccc(NC(=O)c2ccc(N3CCOCC3)cc2F)c(C(F)(F)F)c1 . Reported IC50 at 72 h?
// result 6.3 µM

// query Item under review: O=C(Nc1cccc(C(F)(F)F)c1)Nc1ccc(NC(=O)Nc2ccc(F)cc2)c(C(F)(F)F)c1 . Reported IC50 at 72 h?
// result 1.4 µM

// query Item under review: O=C(Nc1cccc(NC(=O)c2ccc(F)cc2)c1)Nc1cccc(C(F)(F)F)c1 . Reported IC50 at 72 h?
// result 9 µM

----------
System: LNCaP cells
assay details: MTT assay (cytotoxicity), LNCaP cells
Type: cell-based
settings: 72 h, Table 2.2
readout label: IC50 (µM)
Response body: numeric value in µM, unit text excluded.

1. N#Cc1ccc(NC(=O)N/C=C/c2cc(C(F)(F)F)cc(C(F)(F)F)c2)cc1 [Compound 469]    1
2. Cc1ccccc1NC(=O)N/C=C/c1cccc(C(F)(F)F)c1 [Compound 445]    4.1

// query Item under review: O=C(N/C=C/c1cccc(C(F)(F)F)c1)Nc1ccc([N+](=O)[O-])cc1 [Compound 449] . Reported IC50?
// result 2.1

// query Item under review: N#Cc1ccc(NC(=O)N/C=C/c2cc(C(F)(F)F)ccc2C(F)(F)F)cc1C(F)(F)F [Compound 464] . Reported IC50?
// result 0.4

// query Item under review: COc1cc([N+](=O)[O-])ccc1NC(=O)N/C=C/c1cccc(C(F)(F)F)c1 [Compound 441] . Reported IC50?
// result 4.8

// query Item under review: N#Cc1ccc(NC(=O)N/C=C/c2cccc(C(F)(F)F)c2)cc1 [Compound 416] . Reported IC50?
// result 1.6

// query Item under review: O=C(N/C=C/c1cc(C(F)(F)F)ccc1C(F)(F)F)Nc1ccc([N+](=O)[O-])c(C(F)(F)F)c1 [Compound 436] . Reported IC50?
// result 0.5

// query Item under review: COc1cccc(NC(=O)N/C=C/c2cccc(C(F)(F)F)c2)c1 [Compound 417] . Reported IC50?
// result 14.6

----------
target of assay: glucocorticoid receptor (GR) (Homo sapiens, UniProt P04150)
Construct: PC3 cells express endogenous GR; endogenous in cells; host or cells: PC3
Sequence (P04150 whole entry): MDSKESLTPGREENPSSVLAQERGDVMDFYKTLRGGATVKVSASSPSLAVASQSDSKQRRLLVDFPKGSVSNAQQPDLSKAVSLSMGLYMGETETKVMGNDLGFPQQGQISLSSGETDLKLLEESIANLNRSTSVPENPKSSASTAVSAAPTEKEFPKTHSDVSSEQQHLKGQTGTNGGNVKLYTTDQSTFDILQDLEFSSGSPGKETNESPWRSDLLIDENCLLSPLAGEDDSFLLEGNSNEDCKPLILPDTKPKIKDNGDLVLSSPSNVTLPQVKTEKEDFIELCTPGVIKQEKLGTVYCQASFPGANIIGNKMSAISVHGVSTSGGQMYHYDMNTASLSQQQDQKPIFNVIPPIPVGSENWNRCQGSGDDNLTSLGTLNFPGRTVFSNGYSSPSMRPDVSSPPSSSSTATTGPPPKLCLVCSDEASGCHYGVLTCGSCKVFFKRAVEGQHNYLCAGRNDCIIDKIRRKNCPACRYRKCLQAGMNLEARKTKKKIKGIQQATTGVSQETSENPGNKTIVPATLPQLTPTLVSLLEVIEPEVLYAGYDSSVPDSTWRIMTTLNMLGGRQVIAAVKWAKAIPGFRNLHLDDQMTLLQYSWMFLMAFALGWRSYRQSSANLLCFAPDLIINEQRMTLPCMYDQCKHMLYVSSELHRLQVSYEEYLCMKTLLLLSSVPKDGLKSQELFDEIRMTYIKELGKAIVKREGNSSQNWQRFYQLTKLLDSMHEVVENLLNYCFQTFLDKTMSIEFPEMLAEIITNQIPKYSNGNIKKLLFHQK
assay details: GR MMTV-luc reporter assay in PC3 cells
Assay type: cell-based
settings: 10 nM DEX, PC3 cells, 24 h
readout label: effect on GR transcriptional activation induced by DEX (MMTV-luc)

1) O=C(Nc1cccc(C(F)(F)F)c1)Nc1ccc([N+](=O)[O-])c(C(F)(F)F)c1    inactive
2) N#Cc1ccc(NC(=O)Nc2cccc(C(F)(F)F)c2)cc1C(F)(F)F    inactive
3) N#Cc1ccc(NC(=O)Nc2cccc(C(F)(F)F)c2)cc1Cl    inactive

----------
assay details: MTT assay (cytotoxicity), DU145 cells
Assay type: cell-based
settings: human, DU145 cells, Table 2.3
readout label: IC50 at 72 h (µM)
Response body: numeric value in µM, unit text excluded.

Known IC50 at 72 h results, listed for orientation:
1) O=C(N/C=C/c1cc(C(F)(F)F)ccc1C(F)(F)F)Nc1ccc2ncccc2c1 [Compound 517]    6.2
2) O=C(N/C=C/c1cc(C(F)(F)F)ccc1C(F)(F)F)Nc1cnc2ccccc2c1 [Compound 524]    7.4
3) O=C(N/C=C/c1cc(C(F)(F)F)cc(C(F)(F)F)c1)Nc1cnc2ccccc2c1 [Compound 523]    10

Let us move to another entry and its IC50 at 72 h.
// query Item under review: O=C(N/C=C/c1ccccc1C(F)(F)F)Nc1ccc2c(c1)OCO2 [Compound 427] . Reported IC50 at 72 h?
// result 19.2

----------
assay details: MTT assay (cytotoxicity), LNCaP cells
Type: cell-based
settings: human, LNCaP cells, 72 h treatment, Table 6.1
readout label: IC50 at 72 h

Known IC50 at 72 h results, listed for orientation:
1) CN1CCN(c2cc(NC(=O)Nc3ccc(NC(=O)c4ccccc4F)c(C(F)(F)F)c3)cc(C(F)(F)F)c2)CC1    3.4 µM
2) O=C(Nc1cccc(C(F)(F)F)c1)Nc1ccc(NC(=O)c2c(F)cccc2F)c(C(F)(F)F)c1    > 10 µM
3) O=C(Nc1cc(N2CCOCC2)cc(C(F)(F)F)c1)Nc1ccc(NC(=O)c2ccccc2F)c(C(F)(F)F)c1    9.7 µM

// query Item under review: O=C(Nc1ccc(C(F)(F)F)cc1)Nc1ccc(NC(=O)c2ccccc2F)c(C(F)(F)F)c1 . Reported IC50 at 72 h?
// result 1.9 µM

// query Item under review: O=C(Nc1ccc(Br)cc1)Nc1cc(F)ccc1NC(=O)c1ccc(F)cc1F . Reported IC50 at 72 h?
// result 5.3 µM

// query Item under review: O=C(Nc1cccc(C(F)(F)F)c1)Nc1ccc(NC(=O)Nc2cccc(F)c2)c(C(F)(F)F)c1 . Reported IC50 at 72 h?
// result 5.5 µM

// query Item under review: O=C(Nc1ccc(Br)cc1)Nc1ccc(F)c(NC(=O)c2cc(C(F)(F)F)ccc2F)c1 . Reported IC50 at 72 h?
// result 2.4 µM

----------
assay details: MTT assay (cytotoxicity), LNCaP cells
Type: cell-based
settings: human, LNCaP cells, 72 h, Table 2.1
readout label: IC50 at 72 h (µM)
Response body: numeric value in µM, unit text excluded.

// query Item under review: O=C(N/C=C/c1cccc(C(F)(F)F)c1)Nc1ccncn1 . Reported IC50 at 72 h?
// result 4.4

----------
Recorded IC50 values for a group of compounds are listed next.
Test system: 22Rv1 cells
assay details: MTT assay (cytotoxicity), 22Rv1 cells
Assay type: cell-based
settings: 22Rv1 cells, 72 h, Table 4.2
Response body: numeric value in µM, unit text excluded.

Known IC50 results, listed for orientation:
1) N#Cc1ccc(NC(=O)Nc2cccc(C(F)(F)F)c2)cc1C(F)(F)F    1.7
2) O=C(Nc1cccc(C(F)(F)F)c1)Nc1ccc([N+](=O)[O-])c(C(F)(F)F)c1    1.5
3) N#Cc1ccc(NC(=O)Nc2cc(C(F)(F)F)cc(C(F)(F)F)c2)cc1C(F)(F)F    1.6

Let us move to another entry and its IC50.
// query Item under review: N#Cc1ccc(NC(=O)Nc2ccc(C(F)(F)F)cc2)cc1Cl . Reported IC50?
// result 2.2
